Test: Inhibition of human KDM3A catalytic domain expressed in Sf9 cells methyl lysine peptide substrate by AlphaScreen assay
quantity.name: IC50

Check out these entries, answers already filled in.
[[record]]
smiles_data = "C[N+](C)(C)NC(=O)CCC(=O)O"
observed_measurement = "> 100 µM"

[[record]]
smiles_data = "CC(=O)CC(=O)CCC(=O)O"
observed_measurement = "12.7 µM"

[[record]]
smiles_data = "CN(C)N(C)C(=O)CCC(=O)O"
observed_measurement = "> 100 µM"

[[record]]
smiles_data = "CNNC(=O)CCC(=O)O"
observed_measurement = "> 100 µM"

[[record]]
smiles_data = "NNC(=O)CCC(=O)O"
observed_measurement = "> 100 µM"

[[record]]
smiles_data = "O=C(O)CCC(=O)NO"
observed_measurement = "3 µM"


Report IC50 for each item below.
1. CN(C)NC(=O)CCC(=O)NN(C)C
2. CC(C)NC(=O)CCC(=O)O
3. CN(C)OC(=O)CCC(=O)O
4. CN(C)NC(=O)CCC(=O)O

Response given:
["> 100 µM", "> 100 µM", "> 100 µM", "127 µM"]

* * *

Target: Lysine-specific demethylase 2A (Homo sapiens)
Sequence (Q9Y2K7 whole entry): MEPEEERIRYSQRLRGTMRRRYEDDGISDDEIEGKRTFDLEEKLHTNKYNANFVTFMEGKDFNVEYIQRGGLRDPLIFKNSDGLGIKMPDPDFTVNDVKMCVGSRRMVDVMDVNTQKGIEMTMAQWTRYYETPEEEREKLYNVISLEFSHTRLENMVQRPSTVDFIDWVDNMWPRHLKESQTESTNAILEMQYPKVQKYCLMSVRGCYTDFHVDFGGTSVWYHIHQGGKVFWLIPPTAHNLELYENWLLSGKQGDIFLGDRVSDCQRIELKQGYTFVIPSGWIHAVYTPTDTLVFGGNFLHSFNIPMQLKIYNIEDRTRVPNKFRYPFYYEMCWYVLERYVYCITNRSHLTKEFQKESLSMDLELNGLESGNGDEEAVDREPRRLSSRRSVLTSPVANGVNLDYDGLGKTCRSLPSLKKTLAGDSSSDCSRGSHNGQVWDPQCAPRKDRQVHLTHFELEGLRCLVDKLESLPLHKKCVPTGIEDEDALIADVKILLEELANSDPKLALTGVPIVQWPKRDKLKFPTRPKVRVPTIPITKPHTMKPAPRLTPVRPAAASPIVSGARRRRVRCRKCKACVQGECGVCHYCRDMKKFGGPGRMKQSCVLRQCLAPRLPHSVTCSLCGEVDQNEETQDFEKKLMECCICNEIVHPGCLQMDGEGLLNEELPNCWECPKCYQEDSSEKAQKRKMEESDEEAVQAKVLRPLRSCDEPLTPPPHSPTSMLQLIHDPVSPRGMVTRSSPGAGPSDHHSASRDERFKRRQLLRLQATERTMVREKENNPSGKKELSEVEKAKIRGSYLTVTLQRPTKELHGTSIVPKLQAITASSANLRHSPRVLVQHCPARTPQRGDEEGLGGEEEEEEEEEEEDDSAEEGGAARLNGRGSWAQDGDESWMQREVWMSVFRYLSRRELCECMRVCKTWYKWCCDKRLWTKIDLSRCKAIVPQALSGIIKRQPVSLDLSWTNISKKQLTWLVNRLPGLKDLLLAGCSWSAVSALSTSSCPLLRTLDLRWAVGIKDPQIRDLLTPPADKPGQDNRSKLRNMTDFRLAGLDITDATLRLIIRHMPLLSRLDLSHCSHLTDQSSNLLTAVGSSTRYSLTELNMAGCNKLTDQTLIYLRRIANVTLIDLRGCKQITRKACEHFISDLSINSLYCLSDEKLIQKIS
Can you tell me IC50 for the items I'm about to list?
Answers are plain numbers, in nM.

Check out these entries, answers already filled in.
[[record]]
smiles_data = "CN(C)OC(=O)CCC(=O)O"
observed_measurement = 9100

[[record]]
smiles_data = "C[N+](C)(C)NC(=O)CCC(=O)O"
observed_measurement = 63000

[[record]]
smiles_data = "NNC(=O)CCC(=O)O"
observed_measurement = 250

[[record]]
smiles_data = "CNNC(=O)CCC(=O)O"
observed_measurement = 370

[[record]]
smiles_data = "O=C(O)CCC(=O)NO"
observed_measurement = 430

[[record]]
smiles_data = "CC(=O)CC(=O)CCC(=O)O"
observed_measurement = 570


In the following, a different molecule is considered.
The measured IC50 associated with `CN(C)N(C)C(=O)CCC(=O)O` reads 3700

* * *

Target: Histone lysine demethylase PHF8 (Homo sapiens, UniProt Q9UPP1)
Sequence (Q9UPP1 whole entry): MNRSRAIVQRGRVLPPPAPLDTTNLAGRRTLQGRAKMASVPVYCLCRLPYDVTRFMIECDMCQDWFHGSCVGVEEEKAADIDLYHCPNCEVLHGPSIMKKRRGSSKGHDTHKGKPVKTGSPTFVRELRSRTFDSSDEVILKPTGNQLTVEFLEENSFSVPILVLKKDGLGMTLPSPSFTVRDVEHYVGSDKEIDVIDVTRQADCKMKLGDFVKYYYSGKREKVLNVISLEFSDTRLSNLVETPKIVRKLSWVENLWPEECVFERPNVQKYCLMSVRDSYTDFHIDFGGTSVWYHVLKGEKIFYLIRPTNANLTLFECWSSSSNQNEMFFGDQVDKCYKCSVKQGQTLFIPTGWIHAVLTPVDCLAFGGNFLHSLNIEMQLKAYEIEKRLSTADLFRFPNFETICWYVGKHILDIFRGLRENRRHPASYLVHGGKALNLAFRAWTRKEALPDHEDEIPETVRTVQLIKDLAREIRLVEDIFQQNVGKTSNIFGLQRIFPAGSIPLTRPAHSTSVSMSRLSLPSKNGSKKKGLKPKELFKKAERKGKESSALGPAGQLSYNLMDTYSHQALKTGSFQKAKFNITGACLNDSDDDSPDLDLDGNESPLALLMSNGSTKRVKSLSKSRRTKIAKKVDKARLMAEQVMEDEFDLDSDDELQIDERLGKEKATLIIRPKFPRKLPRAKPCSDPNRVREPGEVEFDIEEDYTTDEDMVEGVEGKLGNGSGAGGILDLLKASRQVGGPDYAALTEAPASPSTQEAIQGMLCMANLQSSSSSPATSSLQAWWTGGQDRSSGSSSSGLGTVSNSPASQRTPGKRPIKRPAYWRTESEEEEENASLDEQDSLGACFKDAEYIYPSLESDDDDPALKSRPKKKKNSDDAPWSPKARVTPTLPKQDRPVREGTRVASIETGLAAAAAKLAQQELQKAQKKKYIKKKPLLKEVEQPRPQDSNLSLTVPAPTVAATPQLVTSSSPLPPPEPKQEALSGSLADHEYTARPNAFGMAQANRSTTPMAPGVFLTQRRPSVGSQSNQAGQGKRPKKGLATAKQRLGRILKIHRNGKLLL
quantity.name: log10 of IC50 (log10 of the value in µM)
Note the log scale: values are log10 of IC50 expressed in µM.

[[record]]
smiles_data = "NNC(=O)CCC(=O)O"
target_of_assay = "Histone lysine demethylase PHF8 (Homo sapiens, UniProt Q9UPP1)"
observed_measurement = -0.32


Report log10 of IC50 for each item below.
1. O=C(O)CCC(=O)NO
2. CN(C)NC(=O)CCC(=O)NN(C)C
3. CC(=O)CC(=O)CCC(=O)O

Response given:
[0.23, 2.07, 0.36]

Report log10 of IC50 for each item below.
1. CN(C)OC(=O)CCC(=O)O
2. C[N+](C)(C)NC(=O)CCC(=O)O
3. CN(C)N(C)C(=O)CCC(=O)O
4. CNNC(=O)CCC(=O)O

Response given:
0.84
1.54
1.06
0.53

* * *

pIC50 tested on Lysine-specific demethylase 5C (Homo sapiens, UniProt P41229): recorded values
Sequence (P41229 whole entry): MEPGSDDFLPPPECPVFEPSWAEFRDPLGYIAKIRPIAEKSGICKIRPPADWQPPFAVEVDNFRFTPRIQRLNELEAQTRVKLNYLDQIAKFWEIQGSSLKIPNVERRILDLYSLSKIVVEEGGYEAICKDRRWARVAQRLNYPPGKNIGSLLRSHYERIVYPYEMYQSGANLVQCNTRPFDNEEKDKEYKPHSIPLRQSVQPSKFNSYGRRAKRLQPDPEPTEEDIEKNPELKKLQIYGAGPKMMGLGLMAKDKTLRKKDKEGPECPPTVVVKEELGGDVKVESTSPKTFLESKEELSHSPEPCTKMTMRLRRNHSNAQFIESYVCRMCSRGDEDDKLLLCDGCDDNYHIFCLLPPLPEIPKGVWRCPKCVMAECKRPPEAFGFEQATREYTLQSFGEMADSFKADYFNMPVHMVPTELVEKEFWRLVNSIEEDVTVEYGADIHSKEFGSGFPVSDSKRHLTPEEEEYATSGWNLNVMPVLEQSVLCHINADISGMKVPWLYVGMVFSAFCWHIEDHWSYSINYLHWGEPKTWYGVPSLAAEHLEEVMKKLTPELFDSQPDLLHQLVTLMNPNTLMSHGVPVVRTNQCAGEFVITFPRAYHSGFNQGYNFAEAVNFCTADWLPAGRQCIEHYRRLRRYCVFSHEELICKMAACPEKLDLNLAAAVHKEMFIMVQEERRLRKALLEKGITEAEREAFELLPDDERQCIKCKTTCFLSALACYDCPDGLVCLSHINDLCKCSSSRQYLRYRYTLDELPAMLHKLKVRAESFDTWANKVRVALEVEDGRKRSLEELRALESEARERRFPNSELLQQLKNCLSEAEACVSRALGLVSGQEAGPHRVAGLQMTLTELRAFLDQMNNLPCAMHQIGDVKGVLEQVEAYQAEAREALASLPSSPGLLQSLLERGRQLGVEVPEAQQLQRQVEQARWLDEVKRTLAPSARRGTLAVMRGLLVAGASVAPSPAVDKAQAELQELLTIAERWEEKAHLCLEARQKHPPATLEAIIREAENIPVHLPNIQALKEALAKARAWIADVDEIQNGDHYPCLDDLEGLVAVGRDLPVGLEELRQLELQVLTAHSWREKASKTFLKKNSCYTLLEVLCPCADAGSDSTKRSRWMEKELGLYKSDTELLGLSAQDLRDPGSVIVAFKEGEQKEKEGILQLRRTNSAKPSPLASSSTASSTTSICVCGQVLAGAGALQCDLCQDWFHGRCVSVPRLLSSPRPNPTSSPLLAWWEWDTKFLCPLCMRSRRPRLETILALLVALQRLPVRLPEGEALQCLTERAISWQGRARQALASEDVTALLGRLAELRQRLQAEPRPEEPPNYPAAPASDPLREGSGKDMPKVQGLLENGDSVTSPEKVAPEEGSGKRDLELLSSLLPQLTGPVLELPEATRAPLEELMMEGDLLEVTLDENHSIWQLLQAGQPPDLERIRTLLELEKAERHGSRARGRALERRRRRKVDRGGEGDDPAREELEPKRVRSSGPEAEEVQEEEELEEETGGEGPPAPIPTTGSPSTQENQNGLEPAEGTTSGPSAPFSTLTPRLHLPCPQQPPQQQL
Answers are plain numbers, as −log10 of the molar value.

Check out these entries, answers already filled in.
[[record]]
compound = "CNNC(=O)CCC(=O)O"
target_of_assay = "Lysine-specific demethylase 5C (Homo sapiens, UniProt P41229)"
quantity_name = "pIC50"
observed_measurement = 5.96

[[record]]
compound = "CC(=O)CC(=O)CCC(=O)O [SUCCINYLACETONE]"
target_of_assay = "Lysine-specific demethylase 5C (Homo sapiens, UniProt P41229)"
quantity_name = "pIC50"
observed_measurement = 5.35

[[record]]
compound = "CN(C)OC(=O)CCC(=O)O"
target_of_assay = "Lysine-specific demethylase 5C (Homo sapiens, UniProt P41229)"
quantity_name = "pIC50"
observed_measurement = 4.38


The measured pIC50 associated with `NNC(=O)CCC(=O)O` reads 6.32

* * *

Biological target: Lysine-specific demethylase 6B (Homo sapiens)
quantity.name: IC50

Check out these entries, answers already filled in.
[[record]]
smiles_data = "CN(C)N(C)C(=O)CCC(=O)O"
quantity_name = "IC50"
observed_measurement = "> 100 µM"

[[record]]
smiles_data = "CC(=O)CC(=O)CCC(=O)O"
quantity_name = "IC50"
observed_measurement = "16.5 µM"

[[record]]
smiles_data = "CN(C)NC(=O)CCC(=O)NN(C)C"
quantity_name = "IC50"
observed_measurement = "> 100 µM"

[[record]]
smiles_data = "CNNC(=O)CCC(=O)O"
quantity_name = "IC50"
observed_measurement = "> 100 µM"

[[record]]
smiles_data = "NNC(=O)CCC(=O)O"
quantity_name = "IC50"
observed_measurement = "> 100 µM"

[[record]]
smiles_data = "C[N+](C)(C)NC(=O)CCC(=O)O"
quantity_name = "IC50"
observed_measurement = "> 100 µM"

[[record]]
smiles_data = "CN(C)OC(=O)CCC(=O)O"
quantity_name = "IC50"
observed_measurement = "41.7 µM"

[[record]]
smiles_data = "CC(C)NC(=O)CCC(=O)O"
quantity_name = "IC50"
observed_measurement = "> 100 µM"


In the following, a different compound is considered.
The measured IC50 associated with `CN(C)NC(=O)CCC(=O)O` reads > 100 µM

* * *

Target: Lysine-specific demethylase 4E (Homo sapiens, UniProt B2RXH2)
Sequence (B2RXH2 whole entry): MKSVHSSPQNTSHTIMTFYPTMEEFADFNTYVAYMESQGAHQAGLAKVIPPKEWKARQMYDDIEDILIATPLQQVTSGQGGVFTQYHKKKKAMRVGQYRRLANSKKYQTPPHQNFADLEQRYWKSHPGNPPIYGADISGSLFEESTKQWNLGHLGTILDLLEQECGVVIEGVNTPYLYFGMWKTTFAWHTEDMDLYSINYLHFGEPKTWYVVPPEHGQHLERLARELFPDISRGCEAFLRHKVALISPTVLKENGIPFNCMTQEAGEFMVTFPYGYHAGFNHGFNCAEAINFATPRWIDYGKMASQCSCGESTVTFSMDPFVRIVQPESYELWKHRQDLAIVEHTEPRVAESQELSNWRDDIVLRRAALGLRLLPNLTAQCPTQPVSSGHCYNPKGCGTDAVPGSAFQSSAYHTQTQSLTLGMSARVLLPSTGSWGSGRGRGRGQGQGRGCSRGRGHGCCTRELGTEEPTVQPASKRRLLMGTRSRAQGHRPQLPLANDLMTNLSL
quantity.name: IC50 (µM)
Answers are plain numbers, in µM.

[[record]]
compound = "NNC(=O)CCC(=O)O"
observed_measurement = 0.2

[[record]]
compound = "O=C(O)CCC(=O)NO"
observed_measurement = 0.4

[[record]]
compound = "CNNC(=O)CCC(=O)O"
observed_measurement = 4.3


In the following, a different compound is considered.
The measured IC50 associated with CC(=O)CC(=O)CCC(=O)O [SUCCINYLACETONE] reads 23.9

* * *

IC50 tested on Egl nine homolog 1 (Homo sapiens): recorded values
Sequence (Q9GZT9 whole entry): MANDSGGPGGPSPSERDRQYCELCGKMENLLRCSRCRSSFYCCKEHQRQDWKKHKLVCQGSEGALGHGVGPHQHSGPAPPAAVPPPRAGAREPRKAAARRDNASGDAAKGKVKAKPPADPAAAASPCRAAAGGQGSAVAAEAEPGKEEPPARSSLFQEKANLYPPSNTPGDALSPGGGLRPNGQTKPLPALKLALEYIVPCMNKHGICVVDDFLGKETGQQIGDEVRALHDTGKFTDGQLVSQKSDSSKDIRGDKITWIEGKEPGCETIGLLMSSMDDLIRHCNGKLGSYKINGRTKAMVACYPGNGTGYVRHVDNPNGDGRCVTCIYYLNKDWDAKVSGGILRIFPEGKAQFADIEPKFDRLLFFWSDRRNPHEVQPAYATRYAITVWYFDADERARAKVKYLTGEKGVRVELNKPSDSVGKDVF

Report IC50 for each item below.
1. CN(C)N(C)C(=O)CCC(=O)O
2. CN(C)OC(=O)CCC(=O)O
3. O=C(O)CCC(=O)NO
4. CNNC(=O)CCC(=O)O
5. NNC(=O)CCC(=O)O
6. CN(C)NC(=O)CCC(=O)NN(C)C
7. CC(=O)CC(=O)CCC(=O)O

Response given:
1. > 100 µM
2. 6.3 µM
3. 19.6 µM
4. 14.2 µM
5. > 100 µM
6. > 100 µM
7. > 100 µM
